method.summary: self-splicing fitness, log relative to wild type (ln ratio); higher = more splicing; Tetrahymena group I intron in knt gene, E. coli kanamycin selection, DiMSum; sequences stand for … in CUCUCU…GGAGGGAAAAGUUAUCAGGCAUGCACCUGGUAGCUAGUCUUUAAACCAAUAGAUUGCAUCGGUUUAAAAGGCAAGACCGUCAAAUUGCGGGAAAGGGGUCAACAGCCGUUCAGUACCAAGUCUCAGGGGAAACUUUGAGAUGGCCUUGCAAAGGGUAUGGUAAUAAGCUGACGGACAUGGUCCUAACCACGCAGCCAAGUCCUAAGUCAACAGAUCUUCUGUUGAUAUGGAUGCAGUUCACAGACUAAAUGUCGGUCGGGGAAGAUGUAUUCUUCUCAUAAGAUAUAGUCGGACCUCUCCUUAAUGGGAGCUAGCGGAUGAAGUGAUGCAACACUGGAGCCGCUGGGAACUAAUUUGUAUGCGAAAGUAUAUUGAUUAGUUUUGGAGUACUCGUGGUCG;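 also: selection with 25 µg/mL kanamycin versus none on LB agar overnight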
applied.conditions: 37 °C
measured.metric: self-splicing fitness (ln)
Lab note: jot the number down without any unit.

CAAAAGCAAUAUUACGAGUC : -2.65
GAGAAGCAAUAUUACGCUGU : -1.45
GACCAGCAAUAUUACGUCGU : -0.218
GUCCAGCAAUAUUACGGUUU : 0.389
UCGAAGCAAUAUUACGAUGU : -0.546

Bench note: what self-splicing fitness (ln) did AUAUAGCAAUAUUACGCGAU show?
-1.57

Bench note: what self-splicing fitness (ln) did ACCCAGCAAUAUUACGCUAG show?
-1.77

Bench note: what self-splicing fitness (ln) did GCGCAGCAAUAUUACGCAGG show?
-2.09

###

method.summary: self-splicing fitness, log relative to wild type (ln ratio); higher = more splicing; Tetrahymena group I intron in knt gene, E. coli kanamycin selection, DiMSum; sequences stand for … in CUCUCU…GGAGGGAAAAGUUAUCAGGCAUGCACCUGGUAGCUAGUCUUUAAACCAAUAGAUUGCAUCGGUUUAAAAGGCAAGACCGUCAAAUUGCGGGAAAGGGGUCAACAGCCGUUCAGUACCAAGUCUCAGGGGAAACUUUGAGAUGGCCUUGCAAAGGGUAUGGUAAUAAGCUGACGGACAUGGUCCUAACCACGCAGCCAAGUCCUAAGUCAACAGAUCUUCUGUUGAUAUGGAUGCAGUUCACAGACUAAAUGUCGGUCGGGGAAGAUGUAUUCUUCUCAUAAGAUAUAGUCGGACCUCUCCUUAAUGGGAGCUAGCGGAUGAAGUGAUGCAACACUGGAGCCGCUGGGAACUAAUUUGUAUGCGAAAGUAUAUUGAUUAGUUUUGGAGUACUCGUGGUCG
applied.conditions: 30 °C
measured.metric: self-splicing fitness (ln)
Lab note: jot the number down without any unit.

Bench note: what self-splicing fitness (ln) did AGAAAGCAAUAUUACGUACU show?
-0.412

Bench note: what self-splicing fitness (ln) did GCAAAGCAAUAUUACGGCCC show?
-0.121

Bench note: what self-splicing fitness (ln) did GACUAGCAAUAUUACGCAAC show?
-0.979

Bench note: what self-splicing fitness (ln) did GCCCAGCAAUAUUACGAUUA show?
-1.71

Bench note: what self-splicing fitness (ln) did ACUGAGCAAUAUUACGUAAG show?
-2.02

Bench note: what self-splicing fitness (ln) did GAUAAGCAAUAUUACGAUUG show?
-2.59

Bench note: what self-splicing fitness (ln) did UAGGAGCAAUAUUACGACUG show?
-0.384

Bench note: what self-splicing fitness (ln) did CGCGAGCAAUAUUACGAUCA show?
-2.91

Bench note: what self-splicing fitness (ln) did GCCAAGCAAUAUUACGAUCA show?
-3.6

Bench note: what self-splicing fitness (ln) did ACGCAGCAAUAUUACGCUAC show?
-1.93

Bench note: what self-splicing fitness (ln) did GGCAAGCAAUAUUACGCACG show?
-1

Bench note: what self-splicing fitness (ln) did GAACAGCAAUAUUACGGCUA show?
-0.474

Bench note: what self-splicing fitness (ln) did ACUCAGCAAUAUUACGACUG show?
-3.86
